meta.source: ChEMBL document CHEMBL1126800

Organism: Homo sapiens
Assay: In vitro inhibition of histamine release from human basophils
Assay type: functional, organism-based
Details: Homo sapiens
Criterion: IC50 strictly under 4 µM. Met: met. Not met: not met.

cpd_smiles=Fc1cccc(F)c1Nc1nccc(-c2cccnc2)n1 group="not met"
cpd_smiles=c1ccc(-c2nccc(-c3ccncc3)n2)cc1 group="not met"
cpd_smiles=CN(C)c1ccc(Nc2nccc(-c3ccccn3)n2)cc1 group=met
cpd_smiles=CN(C)c1ccc(Nc2nccc(-c3cccnc3)n2)cc1 group=met

###

Species on record: Homo sapiens
Assay: In vitro inhibition of histamine release from human basophils
Type: functional, organism-based
Settings: Homo sapiens
pIC50: −log10 of the molar value.
property-name: pIC50

cpd_smiles=COc1ccc(N(C)c2nccc(-c3cccnc3)n2)cc1 measured_value="< 4.62"
cpd_smiles=Cc1cc(-c2ccncc2)nc(Nc2ccc(N(C)C)cc2)n1 measured_value="< 4.62"
cpd_smiles=CCN(CC)CCOc1ccc(Nc2nccc(-c3ccccn3)n2)cc1 measured_value="< 5.52"
cpd_smiles=Cc1cc(C)cc(Nc2nc(C)cc(-c3ccco3)n2)c1 measured_value="< 4.62"
